The reported measurements were obtained from the supplement of paper PMC11919725.

Tested on: Jurkat
assay-info: cytotoxicity relative to DMSO, 18 h (ratio); higher = less cell death (drugs called cytotoxic fall below 1)
condition: 1 nM
Property: cytotoxicity; scope: individual compounds
measured-property: cytotoxicity

Cn1c(=O)n(-c2ccc(C(C)(C)C#N)cc2)c2c3cc(-c4cnc5ccccc5c4)ccc3ncc21 : 0.958
O=C(O)C1(Cc2cccc(Nc3nccs3)n2)CCC(Oc2cccc(Cl)c2F)CC1 (stereo not drawn) : 0.966
O=C1CCC(N2C(=O)c3ccccc3C2=O)C(=O)N1 (stereo not drawn) [Thalidomide] : 0.981
NC1CCC(NC2CC2c2ccccc2)CC1 (stereo not drawn) : 0.988
CC(C)N(CC1OC(n2cnc3c(N)ncnc32)C(O)C1O)C1CC(CCc2nc3ccc(C(C)(C)C)cc3[nH]2)C1 (stereo not drawn) : 0.982
CN1CC=CCCOc2cccc(c2)-c2ccnc(n2)Nc2cccc(c2)C1 : 0.95
COc1cc(OC)c(C=CS(=O)(=O)Cc2ccc(OC)c(NCC(=O)O)c2)c(OC)c1 : 0.92
CNC(=O)c1nn(C)c2c1C(C)(C)Cc1cnc(Nc3ccc(N4CCN(C)CC4)cc3)nc1-2 : 0.986
